- condition: in propionitrile, 308.15 K
measurement-kind: solubility (mole fraction)

molecule	measured
CC(=O)NC1(C)CCC2CC1C(C)=NC2(C)C (configuration not stated)	0.0044
CC1(N=C(O)c2ccccc2)CCC2CC1C(c1ccccc1)=[NH+]C2(C)C.[O-][Cl+3]([O-])([O-])[O-] (configuration not stated)	0.00254

----------
Parameter solubility (mole fraction): see the listing below.
- condition: in acetonitrile, 298.15 K

molecule	solubility (mole fraction)
CC1(N=C(O)c2ccccc2)CCC2CC1C(c1ccccc1)=[NH+]C2(C)C.[O-][Cl+3]([O-])([O-])[O-] (configuration not stated)	0.00307
CC(=O)NC1(C)CCC2CC1C(C)=NC2(C)C (configuration not stated)	0.0257

----------
- condition: in n-propanol, 308.15 K

compound	solubility (mole fraction)
CC(=O)NC1(C)CCC2CC1C(C)=NC2(C)C (configuration not stated)	0.00196
CC1(N=C(O)c2ccccc2)CCC2CC1C(c1ccccc1)=[NH+]C2(C)C.[O-][Cl+3]([O-])([O-])[O-] (configuration not stated)	0.00193

The origin of these recorded values is BigSolDB 2.1.
